Value source: ChEMBL document CHEMBL3862011

Measured IC50 on Amine oxidase [flavin-containing] A (Homo sapiens, UniProt P21397) follows.
Sequence (P21397 whole entry): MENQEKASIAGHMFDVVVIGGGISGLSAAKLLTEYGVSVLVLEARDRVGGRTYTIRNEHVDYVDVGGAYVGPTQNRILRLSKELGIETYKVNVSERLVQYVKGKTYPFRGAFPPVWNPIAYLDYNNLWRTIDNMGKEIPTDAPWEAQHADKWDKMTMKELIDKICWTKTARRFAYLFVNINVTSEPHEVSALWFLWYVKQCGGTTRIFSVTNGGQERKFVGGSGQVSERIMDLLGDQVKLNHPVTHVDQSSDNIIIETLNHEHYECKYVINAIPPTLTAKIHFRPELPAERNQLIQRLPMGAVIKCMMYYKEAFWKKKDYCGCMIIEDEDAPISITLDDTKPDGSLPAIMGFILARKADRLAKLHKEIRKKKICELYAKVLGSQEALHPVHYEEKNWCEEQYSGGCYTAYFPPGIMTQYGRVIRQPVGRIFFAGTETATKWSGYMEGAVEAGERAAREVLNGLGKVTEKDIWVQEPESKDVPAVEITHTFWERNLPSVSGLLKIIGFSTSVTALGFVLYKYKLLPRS

smiles-entry: CC(=O)c1ccc(OCc2ccc(F)cc2)cc1
tested-target: Amine oxidase [flavin-containing] A (Homo sapiens, UniProt P21397)
IC50: > 100 µM
//
smiles-entry: CC1(C)CC(=O)c2ccc(OCc3ccc(F)cc3)cc2O1
tested-target: Amine oxidase [flavin-containing] A (Homo sapiens, UniProt P21397)
IC50: > 100 µM
//
smiles-entry: CC(=O)c1ccc(OCc2ccc(F)cc2)cc1F
tested-target: Amine oxidase [flavin-containing] A (Homo sapiens, UniProt P21397)
IC50: > 100 µM

====

assay: Cytotoxicity against rat PC12 cells assessed as cell survival at 20 uM after 72 hrs by MTT assay relative to control; assay type: toxicity, PC-12; details: read-out: Survival
# viability at 72 h, 20 µM per entry

molecule: O=C1OCc2cc(OCc3ccc(C(F)(F)F)cc3)ccc21
viability at 72 h, 20 µM, %: 87.2
--
molecule: CC1(C)CC(=O)c2ccc(OCc3ccc(F)cc3)cc2O1
viability at 72 h, 20 µM, %: 122
--
molecule: CC(=O)c1ccc(OCc2ccc(Cl)cc2)cc1F
viability at 72 h, 20 µM, %: 113
--
molecule: CC(=O)c1ccc(OCc2ccc(Cl)cc2)cc1O
viability at 72 h, 20 µM, %: 126
--
molecule: O=c1ccoc2cc(OCc3cccc(Cl)c3)ccc12
viability at 72 h, 20 µM, %: 119
--
molecule: CC(=O)c1ccc(OCc2ccc(F)cc2)cc1
viability at 72 h, 20 µM, %: 123
--
molecule: CC1(C)CC(=O)c2ccc(OCc3ccc(Cl)cc3)cc2O1
viability at 72 h, 20 µM, %: 109
--
molecule: O=C1CCCc2cc(OCc3ccc(Cl)cc3)ccc21
viability at 72 h, 20 µM, %: 129
--
molecule: CC(=O)c1ccc(OCc2cccc(F)c2)cc1O
viability at 72 h, 20 µM, %: 115
--
molecule: CC(=O)c1ccc(OCc2cccc(Cl)c2)cc1
viability at 72 h, 20 µM, %: 116
--
molecule: CC(=O)c1cccc(OCc2ccc(Br)cc2)c1
viability at 72 h, 20 µM, %: 107
--
molecule: O=C1OCc2cc(OCc3ccc(Cl)cc3)ccc21
viability at 72 h, 20 µM, %: 85.7
--
molecule: Cc1c(C)c2ccc(OCc3cccc(F)c3)cc2oc1=O
viability at 72 h, 20 µM, %: 108
--
molecule: O=c1ccoc2ccc(OCc3ccc(Cl)cc3)cc12
viability at 72 h, 20 µM, %: 108
--
molecule: O=C1CCc2ccc(OCc3cccc(Cl)c3)cc2N1
viability at 72 h, 20 µM, %: 97.2
--
molecule: O=C1OCc2cc(OCc3ccc(F)cc3)ccc21
viability at 72 h, 20 µM, %: 89.7
--
molecule: CC(=O)c1ccc(OCc2cccc(Cl)c2)cc1O
viability at 72 h, 20 µM, %: 112
--
molecule: O=c1ccoc2ccc(OCc3ccc(F)cc3)cc12
viability at 72 h, 20 µM, %: 109
--
molecule: O=C1CCc2ccc(OCc3cccc(Br)c3)cc2N1
viability at 72 h, 20 µM, %: 108
--
molecule: O=c1ccoc2cc(OCc3ccc(C(F)(F)F)cc3)ccc12
viability at 72 h, 20 µM, %: 110
--
molecule: O=c1ccoc2cc(OCc3ccc(F)cc3)ccc12
viability at 72 h, 20 µM, %: 119
--
molecule: O=C1CCOc2cc(OCc3ccc(Cl)cc3)ccc21
viability at 72 h, 20 µM, %: 115
--
molecule: C#CCN[C@@H]1CCc2ccccc21 [RASAGILINE]
viability at 72 h, 20 µM, %: 101
--
molecule: CC(=O)c1ccc(OCc2cccc(F)c2)cc1F
viability at 72 h, 20 µM, %: 119
--
molecule: O=C1CCOc2cc(OCc3ccc(F)cc3)ccc21
viability at 72 h, 20 µM, %: 94.5
